Recorded measurements of growth, one per entry
Tested on: HS 578T breast
Test: NCI-60 one-dose screen, 48 h (100 = growth as untreated, 0 = no growth, -100 = all killed)
Settings: 10 µM unless noted
About 83,000 compounds went through this panel and 20% of them were active in at least one assay; those are over-represented in the sample as a whole. Calls of active or inactive are those of the source. Rule for the calls: active = growth percent below 10; inactive = the rest.

Guide cases for growth, answers given:
molecule	growth
N/C(=N\O)c1ncc(-c2ccc(C(F)(F)F)cc2)c(NC2CCCCCC2)n1	-43.3% [100 µM] (active)
Cc1cc(-c2ccc(N=Nc3c(S(=O)(=O)O)cc4cc(S(=O)(=O)O)cc(O)c4c3O)c(C)c2)ccc1N=Nc1c(S(=O)(=O)O)cc2cc(S(=O)(=O)O)cc(O)c2c1O	78.6% (inactive)
c1coc(CNc2c3ccccc3nc3ccccc23)c1	84% (inactive)
C=CC(=O)N1CN(C(=O)C=C)CN(C(=O)C=C)C1	71.8% (inactive)
CCOC(=O)c1cc(N)nc2ccccc12	82.7% (inactive)

Param item = Nc1ccc(C2=NNC(=O)Cc3cc4c(cc32)OCCO4)cc1Cl ; retrieve measured growth. 62.2% (inactive)

For Clc1ccc(-c2cnc3c(-c4ccnc(N5CCNCC5)c4)cnn3c2)cc1 , what is its reported growth? -32% (active)

Find the recorded growth belonging to O=S1(=O)NCCCN1CCNc1nccc(-c2c(-c3cccc(O)c3)nc3sccn23)n1 and report it. 70.4% (inactive)

Reported growth for CN(C)c1ccc(C2(Cl)c3ccccc3N(C)c3ccccc32)cc1 : what is it? 71.7% (inactive)

Given CCN(CC)CCNC(=O)n1cc(-c2ccncc2)c(-c2cc(Cl)cc(OC)c2)n1 , state its recorded growth. 88% (inactive)

----------
Tested on: SK-OV-3 ovarian
Test: NCI-60 one-dose screen, 48 h (100 = growth as untreated, 0 = no growth, -100 = all killed)
Settings: 10 µM unless noted
Compounds without any hit were thinned out: in the full panel of roughly 83,000, 20% have a hit.
measuredQuantity: growth (%)
Express your answer in %, writing the number without its unit.

compound	growth (%)
CC(C)CC1NC(=O)C(CC(C)C)N(CO)C1=O (stereo not given)	102

# query: growth of entry O=C1c2cccc3cccc(c23)C(=O)N1CCCCCCCCCCN1C(=O)c2cccc3cccc(c23)C1=O 105

Which growth reading was recorded for the compound COc1ccc(C(=O)O)cc1.[Ag] ? 114

Record request: growth value, item CN(C)N1C(=O)c2c(Cl)c(Cl)c(Cl)c(Cl)c2C1=O 106

So what does the record say about growth for O=C1Nc2ccccc2/C1=C\c1nc(C2CCN(S(=O)(=O)c3ccc(F)cc3)CC2)n2ccccc12 ? 57.8

Which value of growth has been reported for COc1cc(C)c(Cl)cc1C1=NN(c2ccc(S(N)(=O)=O)cc2)C(/C=C/c2ccccc2)C1 (stereo not given) in the records? 88.8

Which growth is listed for O=C(Nc1cccc(-n2ccc3c(NC(=O)c4ccccc4)nccc32)c1)c1ccc(Cl)c(Cl)c1 ? 18.7

Suppose we examine the compound CCN(CC)C(=O)O/N=C(/C)c1ccccc1 ; what growth value has been reported? 111

----------
In this section we review reported growth values for a set of compounds.
System: U251 CNS
Assay: NCI-60 one-dose screen, 48 h (100 = growth as untreated, 0 = no growth, -100 = all killed)
Settings: 10 µM unless noted
Compounds without any hit were thinned out: in the full panel of roughly 83,000, 20% have a hit.
# value in %; strip the unit string

Check out these entries, answers already filled in.
compound	growth (%)
COc1ccc(C2=NNC(c3ccc(Oc4nc5c(c(=O)n(C)c(=O)n5C)n4C)c(OC)c3)C2)cc1 (stereo unspecified)	83.2
NC(=S)N1N=C(c2ccc(Cl)cc2)CC1c1cc2ccccc2[nH]c1=O (stereo unspecified)	107

growth for O=C(O)c1cc2cc(OCc3ccccc3)ccc2[nH]1 ? 105

# input compound: COc1ccc(/C(C)=N/NC(=O)CSc2nc3ccccc3c(=O)n2CCc2ccc(S(N)(=O)=O)cc2)cc1 ; wanted: its growth -32.9

So what does the record say about growth for Cc1cc(Nc2c3ccccc3nc3ccccc23)ccc1NS(C)(=O)=O ? 27.1

If you can, please state the reported growth value of Nc1c(C(=O)C[C@@H](N)CO)ccc2c1C(=O)CCO2 . 16.7

Look up growth: Cc1ccc(NC(=O)c2cc(NCc3cc(O)ccc3O)ccc2O)cc1 95.4

Which growth value belongs to Fc1cc(-c2cnc3nonc3n2)c(Cl)cc1Cl ? 109

Sample O=C(CCCCCCN1CC(=O)N2[C@@H](c3ccc(Cl)c(Cl)c3)c3[nH]c4ccccc4c3C[C@H]2C1=O)NO — what was its growth? 40.5

Tell me the measured growth of O=C1N(Cc2ccccc2Cl)c2ccccc2C12NN=C(c1ccccc1)S2 (stereo unspecified) , please. 36.1

Data request, read-out growth, for O=C(Nc1cccc(N=Cc2c(O)ccc3ccccc23)c1)c1ccccc1 92.6
